read-out: alkyl and aryl transferase (GSTA2), GSTA2 (gene 2939); assay: CLD_GSTA2_6hr: CellzDirect (CLD) Gene Expression Assay for alkyl and aryl transferase (GSTA2) at 6 hours (AID 2283666)
Records with an inconclusive call do not appear. Active and inactive are the calls of the source. The calls were made as follows: active = hit-call score of the fitted dose curve at least 0.9, where 1 is the maximum; inconclusive = response in the unintended direction; inactive = score below 0.9.
measurement.type: outcome

Some solved entries appear below for comparison.
compound: O=C(O)COc1ccc(Cl)cc1Cl
measured: inactive
//
compound: CNC(=O)Oc1cccc(N=CN(C)C)c1
measured: inactive
//
compound: CCC(C)(NC(=O)c1cc(Cl)c(C)c(Cl)c1)C(=O)CCl (configuration not stated)
measured: inactive
//
compound: CC(C)(C)C(O)C(Oc1ccc(Cl)cc1)n1cncn1 (configuration not stated)
measured: inactive
//
compound: [2H]C1([2H])[n+]2ccccc2-c2cccc[n+]2C1([2H])[2H]
measured: inactive

Report outcome for CCOCN(C(=O)CCl)c1c(C)cccc1CC
inactive

Report outcome for CC(C)(C)C(O)/C(=C\c1ccc(Cl)cc1Cl)n1cncn1 (configuration not stated)
inactive

These entries and their values trace back to PubChem BioAssay (EPA / NIEHS).
